Tested on: surinam grass
Assay: Test B pre/postemergence surinam grass
Assay type: in vivo, Brachiaria decumbens
Conditions: Preemergence, Rate 250 g/ha; scale of 0 to 10 where 0 is no effect and 10 is complete control
Sorting guide: entries reporting B. signalgrass plant response rating beneath 8 go in the Satisfied pile, the rest go in the Not satisfied pile.

CCN(C(=O)n1oc(=O)n(N(C)C)c1=O)C1CCCCC1 [Compound 274] : Satisfied
CC(C)N(C(=O)n1oc(=O)n(C2CC2)c1=O)c1ccc(F)cc1F [Compound 299] : Not satisfied
COCC(C)N(C(=O)n1oc(=O)n(-c2ccccc2C)c1=O)c1ccc(F)cc1 (stereo not shown) [Compound 324] : Satisfied
CC(C)N(C(=O)n1oc(=O)n(CC(C)(C)C)c1=O)c1ccccc1 [Compound 276] : Not satisfied
CC(C)N(C(=O)n1oc(=O)n(C(CF)CF)c1=O)c1ccccc1 [Compound 421] : Not satisfied
Cc1nc(Cl)sc1C(C)n1c(=O)on(C(=O)N(c2ccc(F)cc2F)C(C)C)c1=O (stereo not shown) [Compound 405] : Satisfied
CC(Cl)=CCn1c(=O)on(C(=O)N(c2ccc(F)cc2)C(C)C)c1=O [Compound 285] : Not satisfied
C=C(C)CCn1c(=O)on(C(=O)N(c2ccccc2)C(C)C)c1=O [Compound 418] : Satisfied

Let us examine a further case.
[ask] # TODO verify B. signalgrass plant response rating < 8 strictly for this molecule: CC(C)N(C(=O)n1oc(=O)n(CCC(F)(F)F)c1=O)c1ccc(F)cc1 [Compound 397]
[reply] Not satisfied

---

Test system: crabgrass
Assay: Test B pre/postemergence crabgrass
Assay type: in vivo, Digitaria sanguinalis
Settings: Rate 1000 g/ha, Preemergence; scale 0 to 10 (0 no effect, 10 complete control)
Quantity: Plant response rating, Crabgrass
Please state the value as a number alone, without comment.

CCOC(=O)CC(C(=O)OCC)n1c(=O)on(C(=O)N(c2ccc(Cl)cc2)C(C)C)c1=O (stereo not shown) : 8

[ask] Could you share which Plant response rating, Crabgrass value was measured for `CC(C)N(C(=O)n1oc(=O)n(N(C)c2ccccc2)c1=O)c1ccc(F)cc1` ?
[reply] 8

[ask] # repeat for `CCOP(=O)(Cn1c(=O)on(C(=O)N(c2ccc(F)cc2F)C(C)C)c1=O)OCC`
[reply] 9

[ask] # repeat for C=CCn1c(=O)on(C(=O)N(c2c(C)cccc2C)C(C)COC)c1=O (stereo not shown)
[reply] 0

---

Reported Plant response rating, Nutsedge values are given for each entry in this list.
Tested on: purple nutsedge
Assay: Test B pre/postemergence purple nutsedge
Type: in vivo, Cyperus rotundus
Conditions: Postemergence, Rate 500 g/ha; scale of 0 to 10 where 0 is no effect and 10 is complete control
Please state the value as a number alone, without comment.

C=CCn1c(=O)on(C(=O)N(c2c(C)cccc2C)C(C)COC)c1=O (stereo not drawn) : 0
COCn1c(=O)on(C(=O)N(c2ccccc2)C(C)C)c1=O : 5
CC(C)N(C(=O)n1oc(=O)n(Cc2nnc(Cl)s2)c1=O)c1ccc(F)cc1 : 0
CCCCCCn1c(=O)on(C(=O)N(c2ccccc2)C(C)C)c1=O : 0
CCOC(Cn1c(=O)on(C(=O)N(c2ccc(Cl)cc2)C(C)C)c1=O)OCC : 0

Next molecule, Plant response rating, Nutsedge to be filled in.
[ask] Could you share which Plant response rating, Nutsedge value was measured for `COCCOCn1c(=O)on(C(=O)N(c2ccccc2)C(C)C)c1=O` ?
[reply] 0
